Molecular target: Microphthalmia-associated transcription factor (Homo sapiens)
Sequence (O75030 whole entry): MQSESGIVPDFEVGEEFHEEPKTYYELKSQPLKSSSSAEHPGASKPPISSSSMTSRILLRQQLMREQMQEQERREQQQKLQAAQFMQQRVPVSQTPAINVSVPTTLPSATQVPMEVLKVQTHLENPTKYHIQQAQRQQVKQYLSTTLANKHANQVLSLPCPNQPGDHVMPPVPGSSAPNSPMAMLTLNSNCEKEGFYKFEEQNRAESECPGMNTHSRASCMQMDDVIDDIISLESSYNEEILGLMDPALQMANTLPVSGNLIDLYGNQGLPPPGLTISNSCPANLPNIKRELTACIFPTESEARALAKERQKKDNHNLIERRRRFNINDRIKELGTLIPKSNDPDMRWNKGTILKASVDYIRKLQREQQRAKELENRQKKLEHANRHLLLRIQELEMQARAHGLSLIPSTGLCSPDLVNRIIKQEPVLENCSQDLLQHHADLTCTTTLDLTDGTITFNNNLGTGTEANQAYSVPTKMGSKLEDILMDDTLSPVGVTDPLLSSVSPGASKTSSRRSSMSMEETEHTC
Experiment: reducers of TRPM1 reporter luminescence, concentration series – cell-based, SK-MEL-5, cherry-picked, set 3, MITF inhibitor project, dose response (AID 493073);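 also: SK-MEL-5 melanoma cells with luciferase driven by the MITF target TRPM1 promoter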
Assay type: functional
Active and inactive are the calls of the source. No rule for the calls is given here.
Listing of recorded AC50 by entry.
MEASURED PARAMETER: AC50

MOLECULE	DATA VALUE
O=C(Nc1ccc(S(=O)(=O)NC2=NCCCCC2)cc1)c1ccc([N+](=O)[O-])s1	5.11 µM (active)
C=CCn1c(C)cc(C(=O)CN2C(=O)c3ccccc3S2(=O)=O)c1C	0.666 µM (active)
O=C(N/N=C/c1ccc([N+](=O)[O-])s1)C(O)c1ccccc1 (centres undefined)	4.48 µM (active)
FC(F)(F)c1cc(CCN2CCNC[C@@H]2Cc2ccccc2)cc(C(F)(F)F)c1	12.3 µM (active)
